- systemUnderTest: Dual specificity protein kinase CLK2 (Homo sapiens) (UniProt P49760)
- Sequence (P49760 whole entry, looked up): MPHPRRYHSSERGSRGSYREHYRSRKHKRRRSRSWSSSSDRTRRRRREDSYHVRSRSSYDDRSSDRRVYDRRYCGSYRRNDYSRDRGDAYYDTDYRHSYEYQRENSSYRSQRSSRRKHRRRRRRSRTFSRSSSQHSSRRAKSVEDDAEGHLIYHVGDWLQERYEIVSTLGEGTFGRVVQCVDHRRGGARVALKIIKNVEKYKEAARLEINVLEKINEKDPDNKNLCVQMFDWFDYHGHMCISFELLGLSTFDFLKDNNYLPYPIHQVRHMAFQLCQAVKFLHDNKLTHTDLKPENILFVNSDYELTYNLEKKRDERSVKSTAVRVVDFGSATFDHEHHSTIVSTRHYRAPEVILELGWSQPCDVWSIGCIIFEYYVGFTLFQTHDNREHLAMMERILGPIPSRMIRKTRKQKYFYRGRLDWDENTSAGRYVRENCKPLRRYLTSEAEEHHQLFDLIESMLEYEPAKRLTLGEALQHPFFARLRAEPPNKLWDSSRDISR
- protocol: Reaction Biology data for inhibitors of CLK2: Probe SAR
- recordedConditions: Reaction Biology CLK2 kinase assay, 10 uM ATP; series mostly up to 10 µM
Records with an inconclusive call do not appear. Active and inactive are the calls of the source. The call rests on the fitted dose curve; in most records, active means well fitted inhibition curve with a large enough effect; inconclusive means small, poorly fitted or top-dose-only effect; inactive means no such curve, though single readings can be large or run the other way.
Select the correct class. Options are active, inactive and nothing else.

Q: Write down the call the test reported for this molecule. Item: Clc1ccc(CNc2nccc(-c3ccc4cn[nH]c4c3)n2)cc1Cl
Result: active

Q: Write down the call the test reported for this molecule. Item: FC(F)(F)c1cc(Br)cc(Nc2nccc(-c3ccc4c(c3)OCO4)n2)c1
Result: active

Q: Write down the call the test reported for this molecule. Item: c1cc(-c2ccc3c(c2)OCO3)nc(Nc2ccc3c(c2)OCO3)n1
Result: active

Q: Write down the call the test reported for this molecule. Item: Clc1cc(Cl)cc(CNc2nccc(-c3ccc4c(c3)OCO4)n2)c1
Result: active

Q: Write down the call the test reported for this molecule. Item: Clc1ccc(CNc2nccc(-c3ccc4c(c3)OCO4)n2)cc1Cl
Result: active

Q: Write down the call the test reported for this molecule. Item: Clc1cc(Cl)cc(CNc2ncncc2-c2ccc3c(c2)OCO3)c1
Result: active

Q: Write down the call the test reported for this molecule. Item: Clc1ccc(CNc2nccc(-c3ccc4c(c3)OCCO4)n2)cc1Cl
Result: active

Q: Write down the call the test reported for this molecule. Item: Clc1ccc(CNc2ccnc(-c3ccc4c(c3)OCO4)n2)cc1Cl
Result: inactive

Q: Write down the call the test reported for this molecule. Item: Clc1ccc(CNc2nccc(-c3ccc4[nH]ncc4c3)n2)cc1Cl
Result: active

Q: Write down the call the test reported for this molecule. Item: COc1cccc(-c2ccnc(NCc3ccc(Cl)cc3)n2)c1
Result: inactive

Q: Write down the call the test reported for this molecule. Item: Cc1nc(CN(C)c2ncnc3ccc(-c4ccc5[nH]ncc5c4)cc23)cs1
Result: active

Q: Write down the call the test reported for this molecule. Item: Cc1nc(CN(C)c2ncnc3ccc(-c4ccc5c(c4)OCO5)cc23)cs1
Result: active

Q: Write down the call the test reported for this molecule. Item: Clc1ccc(CNc2ncncc2-c2ccc3c(c2)OCO3)cc1Cl
Result: active

Q: Write down the call the test reported for this molecule. Item: c1cncc(CNc2ccnc(-c3ccc4[nH]ncc4c3)n2)c1
Result: active

Hey, just so you know, these numbers are from PubChem BioAssay AID624048.
